test system: ICS; assay: qHTS profiling for inhibitors of Plasmodium falciparum proliferation (AID 504749); further: nearly all actives have a fitted effect of over 60% in size; settings: P. falciparum in erythrocytes, SYBR Green DNA, 72 h; series mostly up to 28.7 µM
Records with an inconclusive call do not appear. The source made the active and inactive calls. The call rests on the fitted dose curve; in most records, active means well fitted inhibition curve with a large enough effect; inconclusive means small, poorly fitted or top-dose-only effect; inactive means flat fitted curve, though single readings scatter.
Thanks in advance; please answer with one of these: active, inactive

Look over these answered cases.
- Cc1ccc(=O)n(-c2ccccc2)c1: inactive
- O=C(O)CCCCCCCC(=O)O: inactive
- CCN(CC)CCOCCOC(=O)C1(c2ccccc2)CCCC1: active

Dear colleague, could you share the recorded outcome for CC(C(=O)O)c1ccc(CC2CCCC2=O)cc1 (configuration not stated) when you have a moment?
inactive

Dear colleague, could you share the recorded outcome for `CN(C)C(=O)Oc1cccc([N+](C)(C)C)c1` when you have a moment?
inactive

Dear colleague, could you share the recorded outcome for `Nc1ncn([C@@H]2O[C@H](CO)[C@@H](O)[C@H]2O)c(=O)n1` when you have a moment?
inactive

Dear colleague, could you share the recorded outcome for `CCN(CC)CC(=O)Nc1c(C)cccc1C` when you have a moment?
inactive
